Attribute: pEC50
# System: 24-hydroxylase (24Ohase) gene promoter
# Assay explanation: In vitro transcription assay in ROS 17/2.8 (bone) cells, luciferase reporter
# Format: cell-based
# Details: ROS 17/2.8 cells, 24-hydroxylase promoter-luciferase; read-out: EC50, transcriptional activity in bone cells
In simple prose, pEC50 is minus the logarithm base ten of a concentration in moles per litre.

Solved entries:
* CC(O)CCCC(C)C1CCC2C(=CC=C3CC(O)C(C)C(O)C3)CCCC21C (single isomer, unassigned) [NC-2] | 9.22
* CC1[C@H](O)CC(=C/C=C2\CCC[C@]3(C)[C@@H]([C@H](C)CCC[C@@H](C)O)CC[C@@H]23)C[C@H]1O (stereo partly shown) [MY-2] | 9.40
* C=C1/C(=C\C=C2/CCC[C@]3(C)[C@@H]([C@H](C)CCCC(C)(C)O)CC[C@@H]23)C[C@@H](O)C[C@@H]1O [1,25(OH)2D3, 1α,25-dihydroxyvitamin D3, reference compound] | 9.70

# ---- query compound ----
Value sought: pEC50, system 24-hydroxylase (24Ohase) gene promoter, item CC(O)CCCC(C)C1CCC2C(=CC=C3CC(O)C(C)C(O)C3)CCCC21C (single isomer, unassigned) [TA-2] . Result: 10.10

====

# Assay target: full-length recombinant rat vitamin D receptor (Rattus norvegicus)
# Sequence (P13053 1-423): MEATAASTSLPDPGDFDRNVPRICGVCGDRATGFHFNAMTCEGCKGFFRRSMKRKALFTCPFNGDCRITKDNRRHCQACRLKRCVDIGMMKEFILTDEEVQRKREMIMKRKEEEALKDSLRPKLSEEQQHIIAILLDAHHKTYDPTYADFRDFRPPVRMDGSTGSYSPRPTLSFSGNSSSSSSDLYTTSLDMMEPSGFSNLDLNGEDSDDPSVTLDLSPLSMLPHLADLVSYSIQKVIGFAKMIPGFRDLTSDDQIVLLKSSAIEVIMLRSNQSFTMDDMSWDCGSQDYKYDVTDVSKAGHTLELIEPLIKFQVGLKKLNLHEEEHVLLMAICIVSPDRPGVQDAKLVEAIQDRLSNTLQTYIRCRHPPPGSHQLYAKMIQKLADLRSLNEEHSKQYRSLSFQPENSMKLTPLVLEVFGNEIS
# Assay explanation: biochemical
# Details: ability to compete with [3H]-1,25(OH)2D3 for binding to the vitamin D receptor, full-length recombinant rat VDR
Quick list: pKi per entry.
Quick note: pKi means taking -log10 of the concentration in moles per liter.

- CC(O)CCCC(C)C1CCC2C(=CC=C3CC(O)C(C)C(O)C3)CCCC21C (single isomer, unassigned) [FD-1]: 9.40
- CC(O)CCCC(C)C1CCC2C(=CC=C3CC(O)C(C)C(O)C3)CCCC21C (single isomer, unassigned) [TH-1]: 8.30
- CC(O)CCCC(C)C1CCC2C(=CC=C3CC(O)C(C)C(O)C3)CCCC21C (single isomer, unassigned) [LR-2]: 10.10

Please turn your attention to the following entry.
In plain terms, CC(O)CCCC(C)C1CCC2C(=CC=C3CC(O)C(C)C(O)C3)CCCC21C (single isomer, unassigned) [NC-2] has a documented pKi of 9.70

====

# System: 24-hydroxylase (24Ohase) gene promoter
# Assay explanation: In vitro transcription assay in ROS 17/2.8 (bone) cells, luciferase reporter
# Assay type: cell-based
# Details: ROS 17/2.8 cells, 24-hydroxylase promoter-luciferase; read-out: EC50, transcriptional activity in bone cells
Measured metric: EC50
Reply with the number, then its unit.

Worked cases, EC50 given:
- CC1[C@H](O)CC(=C/C=C2\CCC[C@]3(C)[C@@H]([C@H](C)CCC[C@@H](C)O)CC[C@@H]23)C[C@H]1O (stereo partly drawn) [DW-1]: 20 nM
- CC1[C@H](O)CC(=C/C=C2\CCC[C@]3(C)[C@@H]([C@@H](C)CCC[C@H](C)O)CC[C@@H]23)C[C@H]1O (stereo partly drawn): 7 nM

Then this compound:
EC50 measured on CC(O)CCCC(C)C1CCC2C(=CC=C3CC(O)C(C)C(O)C3)CCCC21C (single isomer, unassigned) [FD-1] = 1 nM
